- Test system: M14 melanoma
- assaySummary: NCI tumour cell line growth inhibition, 48 h
Measured TGI, listed per entry.

{"columns": ["molecule", "observedValue"],
 "data": [
  ["Oc1cccc(/C=N/Nc2nnc(N/N=C/c3cccc(O)c3)c3ccccc23)c1", "> 100 µM"],
  ["Cc1cccc(N2C(=O)C(=O)C(c3nc4ccccc4s3)/C(=N/NC(=S)NN)C2=O)c1C (stereo unspecified)", "> 100 µM"],
  ["Cc1ccc(/C=C2\\CCCC(CN(C)C)C2=O)cc1 (stereo unspecified)", "3.31 µM"],
  ["CN(C)S(=O)(=O)n1cnc(CO)c1", "> 100 µM"],
  ["N=C(N)c1ccc(NCCOCCNc2ccc(C(=N)N)cc2)cc1", "> 100 µM"],
  ["COc1cc(Nc2nnc3n2S(=O)(=O)c2cc(C)c(Cl)cc2S3)cc(OC)c1", "> 100 µM"],
  ["CCN(CC)C(=O)N1CCN(C=S)CC1", "> 100 µM"],
  ["CC(C)(C)OC(=O)C1=C2C=C(O)C=CC2(C)N(Cc2ccccc2)C1=N (stereo unspecified)", "10.4 µM"]
]}

Provide the documented TGI with M14 melanoma as the system for COc1ccc(/C=C2/NC(=S)N=C2Cl)cc1
> 100 µM

Try the molecule COC1=CC(=O)c2c(c(COP(=O)(N(C)CCBr)N(C)CCBr)cn2C)C1=O
0.259 µM

Try the molecule O=c1c2cc(Cl)ccc2[nH]c2cc(O)cc(O)c12
> 10 µM

* * *

- Test system: NCI-H23 lung
- assaySummary: NCI tumour cell line growth inhibition, 48 h
Where a SMILES comes first, the peptide text is derived from it.
propertyName: TGI

Examples with answers:
{"columns": ["compound", "testedTarget", "TGI"],
 "data": [
  ["CSc1nc(NC2OC(COC(C)=O)C(OC(C)=O)C(OC(C)=O)C2OC(C)=O)c(-c2csc(N)n2)c(=O)n1C (stereo unspecified)", "NCI-H23 lung", "> 100 µM"],
  ["COC(=O)C1=CN(C2CCCCC2)C2(c3ccccc3)c3ccccc3C(=O)OC(=O)C12 (stereo unspecified)", "NCI-H23 lung", "> 100 µM"],
  ["N#Cc1nc(-c2ccccn2)oc1N", "NCI-H23 lung", "> 100 µM"],
  ["CC(C)CC(NC(=O)C(Cc1ccccc1)NC(=O)C(Cc1c[nH]c2ccccc12)NC(=O)CNC(=O)C(N)Cc1ccc(O)cc1)C(=O)O (stereo unspecified) (H-YGWFL-OH; configuration not given here)", "NCI-H23 lung", "> 100 µM"],
  ["Fc1cccc(Cl)c1C1SCc2nc3cc4ccccc4cc3n21 (stereo unspecified)", "NCI-H23 lung", "> 100 µM"]
]}

Could you share which TGI value was measured for Clc1ccc2nc(-c3ccccc3)nc(Cl)c2c1 ?
> 100 µM

Try the compound COc1ccc(N=Nc2c(C)c(C#N)c(=S)n(C3OC(CO)C(O)C(O)C3O)c2C)cc1 (stereo unspecified)
> 100 µM

Try the compound O=C(O)CNn1c(SCC(=O)O)nnc(/C=C/c2c(O)ccc3ccccc23)c1=O
52.6 µM

Try the compound Cc1cc(C(=O)O)c(C)n1-c1cccc(C(=O)O)c1
> 100 µM

Try the compound COC(=O)C(CBr)CBr
19.5 µM

Try the compound O=c1c(Br)cc2c(-c3ccccc3)c3cc(Br)c(O)c(Br)c3oc-2c1Br
> 100 µM

Try the compound N#Cc1c(Cl)nc2ccccc2c1N=[N+]=[N-]
6.3 µM

Try the compound O=C(O)CCc1c2ccc(=O)c(O)c-2oc2c(O)c(O)ccc12
> 100 µM

Try the compound O=S(=O)(c1ccccc1)n1cc(C[P+](c2ccccc2)(c2ccccc2)c2ccccc2)c2ccccc21
17.8 µM

Try the compound CC(=O)ON1C(=O)c2cccc3cccc(c23)C1=O
50 µM

Try the compound C[C@]1(Cn2ccnn2)C(C(=O)O)N2C(=O)CC2S1(=O)=O (stereo partly specified)
> 100 µM

Try the compound CC(CNCCCNCCNCCCNCO)[N+](=O)[O-] (stereo unspecified)
28.6 µM

Try the compound Cc1nn2c(C(=O)N/N=C/c3ccc([N+](=O)[O-])cc3)c(C)nc2s1
> 100 µM

Try the compound COC(=O)N/N=C(/CCC(=O)Nc1ccc(C)c(C)c1)CC(=O)C(C)(C)C
> 100 µM

Try the compound COc1ccc(/C=C2/NC(=S)N=C2Cl)cc1
> 100 µM

Try the compound CCN(CC)c1ccc2cc(-c3nnc(-c4ccccc4O)o3)c(=O)oc2c1
24.8 µM

* * *

- Tested on: MOLT-4 leukemia
- assaySummary: NCI tumour cell line growth inhibition, 48 h
Measured TGI, listed per entry.

Examples with answers:
{"columns": ["molecule", "TGI"],
 "data": [
  ["Cc1ccc(/C=C2\\CCCC(CN(C)C)C2=O)cc1 (stereo not given)", "> 100 µM"],
  ["CC1(C)OCC([C@H]2CC23SCCCS3)O1 (stereo not given in full)", "> 100 µM"],
  ["COC(=O)/C=C1/SC(N2N=C(c3cccs3)CC2c2ccc(F)cc2)=NC1=O (stereo not given)", "7.25 µM"]
]}

Could you share which TGI value was measured for C=C1C(=O)OC2CC(=C)C3CC=C(C)C3CC12 (stereo not given) ?
46.8 µM

Try the molecule Cc1nc2ccc(NC3OC(CO)C(O)C(O)C3O)cc2c(=O)n1-c1ccccc1 (stereo not given)
> 100 µM

* * *

- System: HCT-15 colon
- assaySummary: NCI tumour cell line growth inhibition, 48 h
propertyName: TGI

Examples with answers:
{"columns": ["molecule", "TGI"],
 "data": [
  ["CC(=O)C(CN(C)C)C(c1ccccc1)c1c(O)c2ccccc2oc1=O (stereo unspecified)", "> 100 µM"],
  ["COc1ccc(/C=C2/NC(=S)N=C2Cl)cc1", "> 100 µM"],
  ["CCCCN[C@H]1C2C3CC4C5CC(C42)C1(C)C53 (stereo partly specified)", "> 100 µM"],
  ["COC(=O)C1C=NNC1C(=O)OC (stereo unspecified)", "> 100 µM"],
  ["COC(=O)C1=CN(C2CCCCC2)C2(c3ccccc3)c3ccccc3C(=O)OC(=O)C12 (stereo unspecified)", "> 100 µM"],
  ["N=C(N)c1ccc(NCCOCCNc2ccc(C(=N)N)cc2)cc1", "> 100 µM"],
  ["N#Cc1c(O)cc(=O)n2c1[nH]c1ccccc12", "> 100 µM"],
  ["O/N=C(\\CC(O)(C(F)(F)F)C(F)(F)F)c1cccc(Cl)c1", "> 100 µM"],
  ["Cc1ccn2c(CCc3nnc4cc(C)ccn34)nnc2c1", "> 100 µM"],
  ["C[C@@H]1C2=CC[C@@]3(C)C(CCC3[C@H](C)[C@H]3C[C@@]4(C)O[C@@](c5cccnc5)(O3)OC4(C)C)[C@@H]2C2OC2[C@@]12CCC(=O)O2 (stereo partly specified)", "> 100 µM"]
]}

Could you share which TGI value was measured for CO[C@@H]1C[C@H]2N3CC[C@@]2(c2cc4c(cc2C3)OCO4)[C@H]2O[C@@H]12 ?
> 100 µM

Try the molecule COc1cc(S(=O)(=O)Nc2ccc(-c3csc(N4C(=O)C(Cl)C4c4ccccc4)n3)cc2)ccc1Cl (stereo unspecified)
> 100 µM

Try the molecule Fc1cccc(Cl)c1C1SCc2nc3cc4ccccc4cc3n21 (stereo unspecified)
> 100 µM

Try the molecule CCCCCCCCCCCCOc1ccc(/C=C/C2=[N+](CCCl)CCO2)cc1
> 100 µM

Try the molecule O=C(N/N=C/c1ccccc1O)c1ccccc1Nc1ccccc1C(=O)N/N=C/c1ccccc1O
> 100 µM

Try the molecule COC(=O)c1c[nH]c2c1-c1cc(C(=O)OCc3ccccc3)n(S(=O)(=O)c3ccc(C)cc3)c1C(=O)C2=O
0.438 µM

Try the molecule CCN(CC)/[N+]([O-])=N/OCOC(C)=O
> 100 µM

Try the molecule CCOC(=O)C1=C(C)N(NC(N)=O)C(C)(O)C12CCOC2=O (stereo unspecified)
> 100 µM

Try the molecule CCOC(=O)c1oc2ccc([N+](=O)[O-])c3c2c1CCC3
> 100 µM

Try the molecule COC1C(OC(=O)/C=C/C=C/C=C/C=C\C(=O)O)CCC2(CO2)C1C1(C)OC1CC=C(C)C (stereo unspecified)
> 200 µM

Try the molecule Nc1c(-c2ccccc2[N+](=O)[O-])nc2ccccn12
> 100 µM

* * *

Measured TGI, listed per entry.
- System: OVCAR-8 ovarian
- assaySummary: NCI tumour cell line growth inhibition, 48 h
Residues, ends and D or L forms follow the SMILES beside them. *: point of attachment. Boc = CC(C)(C)OC(=O)*; OBn = c1ccc(CO*)cc1

{"columns": ["compound", "propertyName", "observedValue"],
 "data": [
  ["CC1(S)CC2C(CC1Sc1ccccc1)C2(C)C (stereo unspecified)", "TGI", "> 100 µM"],
  ["Cc1ccc(N2CCN(CCC(=O)O)CC2)cc1", "TGI", "> 100 µM"],
  ["COc1ccc(/C=C2\\CN(Cc3cn(CCNc4ccnc5cc(Cl)ccc45)nn3)C/C(=C\\c3ccc(OC)c(OC)c3)C2=O)cc1OC", "TGI", "> 100 µM"]
]}

Provide the documented TGI with OVCAR-8 ovarian as the system for N#Cc1c(Cl)nc2ccccc2c1N=[N+]=[N-]
7.7 µM

Try the compound CCN(CC)C(=O)N1CCN(C=S)CC1
> 100 µM

Try the compound CC(C)CC(NC(=O)OC(C)(C)C)C(=O)N1CCCC1C(=O)OCc1ccccc1 (stereo not drawn) (Boc-Leu-Pro-OBn; configuration not given here)
> 100 µM

Try the compound CCOC(=O)[C@H]1Nc2ccc([N+](=O)[O-])cc2C2c3ccccc3CC21 (stereo partly specified)
56.1 µM

Try the compound CN(C)CC1CCCCCCCCCC(CN(C)C)C1=O (stereo unspecified)
> 54.8 µM

Try the compound OCCNCCCOc1ccc2ncnc(Nc3ccc(Oc4cccc(C(F)(F)F)c4)c(Cl)c3)c2c1
5.83 µM

Try the compound O=c1c(NO)c([N+](=O)[O-])cnn1-c1ccccc1
7.48 µM
